The origin of these recorded values is paper PMC7901646.

tested on: SU-DHL-10 (GCB DLBCL); test: MTT cell proliferation, lymphoma; assay type: cell-based; conditions: Homo sapiens, SU-DHL10; 1 μM, 72 h, of untreated cells; read-out: Proliferating cells (%)
// activity at 1 µM lookup, one value per entry
The response must be a number in % with no trailing unit.

Past entries and their recorded results:
>  <compound>
CCOC(=O)c1cc2c(n1Cc1ccccc1OC)-c1oncc1CCC2 [Compound 62]

>  <activity at 1 µM [%]>
51.1

$$$$
>  <compound>
CCOC(=O)c1cc2c(n1Cc1cc(OC)c(OC)c(OC)c1)-c1oncc1CCC2 [Compound 67]

>  <activity at 1 µM [%]>
11.2

$$$$
>  <compound>
COc1ccc(OC)c(Cn2ccc3c2-c2oncc2CCC3)c1 [Compound 57]

>  <activity at 1 µM [%]>
11

$$$$
>  <compound>
CCOC(=O)c1c(Cl)c2c(n1Cc1cc(OC)ccc1OC)-c1oncc1CCC2 [Compound 74]

>  <activity at 1 µM [%]>
13.3

$$$$
>  <compound>
CCOC(=O)c1c(Cl)c2c(n1Cc1ccccc1)-c1oncc1CCC2 [Compound 70]

>  <activity at 1 µM [%]>
69.5

$$$$
>  <compound>
CCOC(=O)c1cc2c(n1Cc1cc(OC)ccc1OC)-c1oncc1CCC2 [Compound 65]

>  <activity at 1 µM [%]>
71.6

$$$$

Next up:
For the compound CCOC(=O)c1c(Cl)c2c(n1Cc1ccc(OC)cc1)-c1oncc1CCC2 [Compound 73] , what activity at 1 µM is on record?
87.4

----------
This section lists GI50 readings for PC-3.
The response must be a number in nM with no trailing unit.

>  <compound>
CCOC(=O)c1c(Cl)c2c(n1Cc1ccccc1)-c1oncc1CCC2 [Compound 70]

>  <system under test>
PC-3

>  <GI50 / nM>
3160

$$$$

Short answer please: GI50, PC-3, entry CCOC(=O)c1cc2c(n1Cc1cc(OC)c(OC)c(OC)c1)-c1oncc1CCC2 [Compound 67]
170

Again, but for CCOC(=O)c1cc2c(n1Cc1ccccc1OC)-c1oncc1CCC2 [Compound 62]
2480

Again, but for CCOC(=O)c1cc2c(n1Cc1cccc(OC)c1)-c1oncc1CCC2 [Compound 63]
2350

Again, but for CCOC(=O)c1c(Cl)c2c(n1Cc1cc(OC)cc(OC)c1)-c1oncc1CCC2 [Compound 75]
290

Again, but for CCOC(=O)c1cc2c(n1Cc1cc(OC)cc(OC)c1)-c1oncc1CCC2 [Compound 66]
40

----------
This section lists GI50 readings for SN12C.
The response must be a number in nM with no trailing unit.

Past entries and their recorded results:
>  <structure smiles string>
CCOC(=O)c1c(Cl)c2c(n1Cc1cc(OC)cc(OC)c1)-c1oncc1CCC2

>  <numeric value>
830

$$$$
>  <structure smiles string>
CCOC(=O)c1cc2c(n1Cc1cccc(OC)c1)-c1oncc1CCC2

>  <numeric value>
3510

$$$$
>  <structure smiles string>
CCOC(=O)c1cc2c(n1Cc1cc(OC)c(OC)c(OC)c1)-c1oncc1CCC2

>  <numeric value>
760

$$$$

Next up:
For the compound `CCOC(=O)c1cc2c(n1Cc1cc(OC)cc(OC)c1)-c1oncc1CCC2` , what GI50 is on record?
70
